# Test system: ornithine decarboxylase (ODC)
# ASSAY DETAILS: Ornithine decarboxylase (ODC) assay: inhibition of TPA induction of ODC activity
# Format: biochemical
# ASSAY CONTEXT: concentration of the test compound which causes 60% inhibition in the ODC assay (TPA-induced ODC activity)
OBSERVED PROPERTY: IC60 (nM)
Answers are plain numbers, in nM.

Example results:
CCOC(=O)c1ccc(C#C/C=C/C2=C(C)CCCC2OC(C)=O)cc1 (single isomer, unassigned) [Compound 3a]; 0.52
CCOC(=O)c1ccc(C#CC=CC2=C(C)CCCC2=NOCc2ccccc2)cc1 [Compound 11]; 10.3
CCOC(=O)c1ccc(C#CC=CC2=C(C)CCCC2=NOC)cc1 [Compound 10]; 2.4
CCOC(=O)c1ccc(C#C/C=C/C2=C(C)CCCC2OC(=O)c2ccccc2)cc1 (stereo not shown) [Compound 7a]; 8.6
CCOC(=O)C=C1CCCC(C)=C1C=CC#Cc1ccc(C(=O)OCC)cc1 [Compound 12]; 7.8
CCOC(=O)c1ccc(C#C/C=C/C2=C(C)CCCC2OC(=O)C(C)(C)C)cc1 (single isomer, unassigned) [Compound 6a]; 5.1

For each of the items listed, what is its IC60?
1. CCOC(=O)c1ccc(C#C/C=C/C2=C(C)CCCC2OC(=O)C(C)C)cc1 (stereo not shown) [Compound 5b]
2. CCOC(=O)c1ccc(C#C/C=C/C2=C(C)CCCC2OC(C)=O)cc1 (single isomer, unassigned) [Compound 3b]
3. CCOC(=O)c1ccc(C#C/C=C/C2=C(C)CCCC2OC(=O)CC)cc1 (stereo not shown) [Compound 4a]
4. CCOC(=O)c1ccc(C#C/C=C/C2=C(C)CCCC2OC(=O)C(C)(C)C)cc1 (single isomer, unassigned) [Compound 6b]

[234, 4.3, 20.9, 124]
